# Test system: Escherichia coli TOP10
# experiment_summary: shrunken log2 fold change of peptide-encoding DNA abundance (4.5 h post-induction vs induction); higher = less antimicrobial activity (less host growth inhibition)
# experimental_context: time post-induction: 4.5 h; library: site-saturation at positions 5, 18, 19, 20
Below, each entry is listed with its recorded shrunken log2 fold change.

RRIRFRPPRLPRPRPRPNCMPRP ... -0.143
RRIRDRPPRLPRPRPRPLQWPRP ... 0.219
RRIRERPPRLPRPRPRPDKNPRP ... -0.383
RRIRARPPRLPRPRPRPNMIPRP ... -0.194
RRIRERPPRLPRPRPRPTSIPRP ... -0.19
RRIRRRPPRLPRPRPRPPDYPRP ... 0.244

Measured shrunken log2 fold change, RRIRDRPPRLPRPRPRPFCSPRP : 0.217

shrunken log2 fold change measured on RRIRNRPPRLPRPRPRPMQMPRP = 0.0963

Sample RRIRRRPPRLPRPRPRPCKWPRP ; shrunken log2 fold change observed: -0.0414

Reported shrunken log2 fold change of RRIRHRPPRLPRPRPRPKVKPRP : 0.235

Lookup result for RRIRRRPPRLPRPRPRPKQNPRP ; measured shrunken log2 fold change: 0.631

Recorded shrunken log2 fold change (sequence RRIRFRPPRLPRPRPRPTPTPRP ): 0.471

====

Below, each entry is listed with its recorded shrunken log2 fold change.
# Tested on: Escherichia coli TOP10
# experiment_summary: shrunken log2 fold change of peptide-encoding DNA abundance (4.5 h post-induction vs induction); higher = less antimicrobial activity (less host growth inhibition)
# experimental_context: time post-induction: 4.5 h; library: site-saturation at positions 5, 18, 19, 20

# sequence RRIRMRPPRLPRPRPRPGMWPRP ; its shrunken log2 fold change = 0.292

For this sequence ( RRIRKRPPRLPRPRPRPWPHPRP ), measured shrunken log2 fold change is 0.298

Entry RRIRHRPPRLPRPRPRPIGHPRP — recorded shrunken log2 fold change = -0.0911

====

# System: Escherichia coli TOP10
# experiment_summary: shrunken log2 fold change of peptide-encoding DNA abundance (4.5 h post-induction vs induction); higher = less antimicrobial activity (less host growth inhibition)
# experimental_context: time post-induction: 4.5 h; library: site-saturation at positions 5, 18, 19, 20
List of shrunken log2 fold change values.
Kindly provide the number alone.

RRIRQRPPRLPRPRPRPEYMPRP ... -0.0613
RRIRPRPPRLPRPRPRPQMTPRP ... 2.25

As a next step, examine the sequence that follows.
Consider RRIRIRPPRLPRPRPRPWIAPRP . Its measured shrunken log2 fold change is -0.717

====

# Tested on: Escherichia coli TOP10
# experiment_summary: shrunken log2 fold change of peptide-encoding DNA abundance (4.5 h post-induction vs induction); higher = less antimicrobial activity (less host growth inhibition)
# experimental_context: time post-induction: 4.5 h; library: site-saturation at positions 5, 18, 19, 20
label 1 means recorded shrunken log2 fold change is -0.1 or above; label 0 means it is below -0.1.

RRIRTRPPRLPRPRPRPWKRPRP ... label 1

Does the reported shrunken log2 fold change for RRIRARPPRLPRPRPRPDCLPRP fall at or above the -0.1 mark?
label 1

Dear colleague, could you confirm whether RRIRNRPPRLPRPRPRPKKKPRP has shrunken log2 fold change at or above -0.1?
label 1

Decide: is the reported value of shrunken log2 fold change for RRIRCRPPRLPRPRPRPFNIPRP equal to or greater than -0.1?
label 0

hey, is shrunken log2 fold change for this one >= -0.1? RRIRGRPPRLPRPRPRPLQAPRP
label 1

Could you verify whether the entry RRIRGRPPRLPRPRPRPKKAPRP shows shrunken log2 fold change of no less than -0.1?
label 1

====

# Test system: Escherichia coli TOP10
# experiment_summary: shrunken log2 fold change of peptide-encoding DNA abundance (4.5 h post-induction vs induction); higher = less antimicrobial activity (less host growth inhibition)
# experimental_context: time post-induction: 4.5 h; library: site-saturation at positions 5, 18, 19, 20
Listed sequences paired with reported shrunken log2 fold change
// no unit, no text: just the number

RRIRSRPPRLPRPRPRPRNKPRP ... -0.0701
RRIRDRPPRLPRPRPRPPFNPRP ... -0.217
RRIRIRPPRLPRPRPRPTSTPRP ... -0.0986
RRIRWRPPRLPRPRPRPGAVPRP ... 0.745
RRIRFRPPRLPRPRPRPKQWPRP ... 0.133

Short answer on Escherichia coli TOP10 for RRIRGRPPRLPRPRPRPVQHPRP , shrunken log2 fold change: 0.542

The measured shrunken log2 fold change that RRIRNRPPRLPRPRPRPGSKPRP showed for Escherichia coli TOP10 is 0.00175

Let me check: RRIRHRPPRLPRPRPRPNIVPRP , system Escherichia coli TOP10, measured shrunken log2 fold change is -0.0257

====

# Test system: Escherichia coli TOP10
# experiment_summary: shrunken log2 fold change of peptide-encoding DNA abundance (4.5 h post-induction vs induction); higher = less antimicrobial activity (less host growth inhibition)
# experimental_context: time post-induction: 4.5 h; library: site-saturation at positions 5, 18, 19, 20
value_kind: shrunken log2 fold change
API doc: respond with a numeric literal and nothing else, no unit.

Look over these answered cases.
RRIRQRPPRLPRPRPRPFRYPRP ... -0.245
RRIRDRPPRLPRPRPRPHLAPRP ... 0.302
RRIRGRPPRLPRPRPRPRVVPRP ... 0.667

Continue with the next sequence.
// shrunken log2 fold change value for RRIRGRPPRLPRPRPRPINVPRP : -0.248

====

# Test system: Escherichia coli TOP10
# experiment_summary: shrunken log2 fold change of peptide-encoding DNA abundance (4.5 h post-induction vs induction); higher = less antimicrobial activity (less host growth inhibition)
# experimental_context: time post-induction: 4.5 h; library: site-saturation at positions 5, 18, 19, 20
Items are presented alongside their recorded shrunken log2 fold change.
Write the number on its own, no unit after it.

Sample answers from the record:
RRIRWRPPRLPRPRPRPLRLPRP ... 0.804
RRIRTRPPRLPRPRPRPFWKPRP ... 0.0184

Now let's try a different one.
Entry under test: RRIRTRPPRLPRPRPRPRIQPRP . Its shrunken log2 fold change was 0.214

====

# Test system: Escherichia coli TOP10
# experiment_summary: shrunken log2 fold change of peptide-encoding DNA abundance (4.5 h post-induction vs induction); higher = less antimicrobial activity (less host growth inhibition)
# experimental_context: time post-induction: 4.5 h; library: site-saturation at positions 5, 18, 19, 20
Listed below: shrunken log2 fold change values for each entry.
Hey, just send me the number, nothing else.

Recorded results for 10 sequences are shown here.
RRIRVRPPRLPRPRPRPDVDPRP ... -0.367
RRIRKRPPRLPRPRPRPTEQPRP ... 2.01
RRIRMRPPRLPRPRPRPYLLPRP ... -0.204
RRIRMRPPRLPRPRPRPAPKPRP ... 0.675
RRIRLRPPRLPRPRPRPWWRPRP ... 0.197
RRIRSRPPRLPRPRPRPHLPPRP ... -0.27
RRIRQRPPRLPRPRPRPDAIPRP ... 0.0472
RRIRKRPPRLPRPRPRPQNPPRP ... 0.0671
RRIRIRPPRLPRPRPRPSRFPRP ... -0.278
RRIRARPPRLPRPRPRPRQGPRP ... 0.605

Lab note: next sequence to report on.
Entry RRIRQRPPRLPRPRPRPHFRPRP — recorded shrunken log2 fold change = 0.092

====

# Tested on: Escherichia coli TOP10
# experiment_summary: shrunken log2 fold change of peptide-encoding DNA abundance (4.5 h post-induction vs induction); higher = less antimicrobial activity (less host growth inhibition)
# experimental_context: time post-induction: 4.5 h; library: site-saturation at positions 5, 18, 19, 20
Values of shrunken log2 fold change greater than or equal to -0.06 map to 1.0; values below map to 0.0.

RRIRLRPPRLPRPRPRPQWFPRP ... 0.0
RRIRHRPPRLPRPRPRPQYTPRP ... 0.0
RRIRKRPPRLPRPRPRPHIQPRP ... 0.0

Answer whether shrunken log2 fold change of RRIRLRPPRLPRPRPRPAFQPRP is greater than or equal to -0.06.
1.0

Exam item: decide whether the reported shrunken log2 fold change for RRIRRRPPRLPRPRPRPRMVPRP is at least -0.06.
1.0

====

# System: Escherichia coli TOP10;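 further: peptides expressed intracellularly from a pBAD plasmid library in pooled LB shake-flask culture, induced with 0.3% L-arabinose, DNA abundance read by NGS, three biological replicates, DESeq2 with apeglm shrinkage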
# experiment_summary: shrunken log2 fold change of peptide-encoding DNA abundance (4.5 h post-induction vs induction); higher = less antimicrobial activity (less host growth inhibition)
# experimental_context: time post-induction: 4.5 h; library: site-saturation at positions 5, 18, 19, 20
Here the recorded shrunken log2 fold change is given for each entry.

Take a look at these entries with their results.
RRIRCRPPRLPRPRPRPHHPPRP ... -0.37
RRIRRRPPRLPRPRPRPRITPRP ... 0.186
RRIRIRPPRLPRPRPRPSYYPRP ... -1.34
RRIRERPPRLPRPRPRPWIWPRP ... 0.164
RRIRCRPPRLPRPRPRPIAGPRP ... 0.195

RRIRFRPPRLPRPRPRPMVNPRP yielded shrunken log2 fold change of -0.171

Recorded shrunken log2 fold change (sequence RRIRRRPPRLPRPRPRPYLWPRP ): -0.439
